Provide the recorded z-score for the entries that follow.
test: basal 3T3-L1 adipocyte mitochondrial potential changes, profiling panel, cell-based, JC-1 fluorescence, 3T3-L1 adipocytes, 24 h, 100 nL compound (AID 1168); settings: JC-1 mitochondrial fluorescence, higher = more signal, called active from +8 up or from −8 down; note: test concentration not given here
Respond numerically, and do not add a unit to the figure.

Request: z-score for `C[C@@H]1NC(=O)CC=C[C@@H](C)[C@@H]2C=C[C@H](O)[C@@H](COC(=O)[C@H](C)NC(=O)CC=C[C@@H](C)[C@@H]3C=C[C@H](O)[C@@H](COC1=O)O3)O2` ?
Result: 0.863

Request: // repeat for `COc1ccc([Si](C)(C)[C@H]2[C@H](CC(=O)N3Cc4ccccc4C[C@H]3CO)O[C@@]3(C(=O)N(Cc4cccc(N5CCOC5=O)c4)c4ccccc43)[C@@H]2C)cc1` and report
Result: 0.405

Request: // repeat for `Cc1ccc(S[C@]2(C(=O)O)CC(=O)N(Cc3ccccc3)[C@@H]2c2ccc(CO)cc2)cc1` and report
Result: 0.923

From: PubChem BioAssay
